# pIC50 per entry
# Test system: KPL-4 breast cancer cell line
# measurement.description: Tumor cell proliferation assay (CellTiter-Glo), KPL-4
# Format: cell-based
# experimental.parameters: Homo sapiens, KPL4, 72 h drug exposure, read-out: KLP-4 median IC50
Please report pIC50 as the negative decimal logarithm of the molar concentration, giving only the number.

Would you please look over these solved cases?
CCOc1cc(Cl)nn2c(-c3ccccc3)c(-c3ccc(C4(N)CCC4)cc3)nc12 ... 5.22
CCOc1nn2c(-c3ccccc3)c(-c3ccc(C4(N)CCC4)cc3)nc2c(C)c1C ... 5.70
NC1(c2ccc(-c3nc4ccc(C(F)(F)F)nn4c3-c3ccccc3)cc2)CCC1 ... 5.77
NC1(c2ccc(-c3nc4c(-c5cc[nH]n5)cc(C(=O)NCCO)nn4c3-c3ccccc3)cc2)CCC1 ... 5.70
CCc1cc(CC)c2nc(-c3ccc(C4(N)CCC4)cc3)c(-c3ccccc3)n2n1 ... 5.70

Exercise: Given "COc1cc(Br)nn2c(-c3ccccc3)c(-c3ccc(C4(N)CCC4)cc3)nc12" , state its recorded pIC50.
Key: 6.60

----------
# Test system: MCF-7 breast tumour cell line
# measurement.description: Tumor cell proliferation assay (CellTiter-Glo), MCF-7
# Format: cell-based
# experimental.parameters: Homo sapiens, MCF7, 72 h drug exposure, read-out: MCF-7 median IC50
parameter.measured: pIC50
# reply with the number alone; pIC50 is -log10 of concentration in mol/L

C=Cc1cc(OC)c2nc(-c3ccc(C4(N)CCC4)cc3)c(-c3ccccc3)n2n1 [Example 18] ... 5.96

Exercise: // returns reported pIC50 for input CCOc1cc(OCC)c2nc(-c3ccc(C4(N)CCC4)cc3)c(-c3ccccc3)n2n1 [Example 76]
Key: 6.03

Exercise: pIC50 for CC(=O)c1ccc2nc(-c3ccc(C4(N)CCC4)cc3)c(-c3ccccc3)n2n1 [Example 43] ?
Key: 5.17

Exercise: Given the entry COc1cc(-c2cc[nH]n2)c2nc(-c3ccc(C4(N)CCC4)cc3)c(-c3ccccc3)n2n1 [Example 73] , report its measured pIC50.
Key: 5.70

Exercise: Fill in the blank: the reported pIC50 of CC(=O)Nc1ccc2nc(-c3ccc(C4(N)CCC4)cc3)c(-c3ccccc3)n2n1 [Example 37] is ____.
Key: 5.70

Exercise: Param item = NC1(c2ccc(-c3nc4cccnn4c3-c3ccccc3)cc2)CCC1 [Example 25] ; retrieve measured pIC50.
Key: 5.72

Exercise: Given the entry NC(=O)c1cc(-c2cc[nH]n2)c2nc(-c3ccc(C4(N)CCC4)cc3)c(-c3ccccc3)n2n1 [Example 60] , report its measured pIC50.
Key: 7.14

Exercise: Quick check: pIC50 of Cc1ccc2nc(-c3ccc(C4(N)CCC4)cc3)c(-c3ccccc3)n2n1 [Example 1] ?
Key: 6.22

Exercise: Would you mind telling me what pIC50 value was observed for COC(=O)c1ccc2nc(-c3ccc(C4(N)CCC4)cc3)c(-c3ccccc3)n2n1 [Example 39] ?
Key: 5.21

----------
# Test system: MCF-7 breast tumour cell line
# measurement.description: Tumor cell proliferation assay (CellTiter-Glo), MCF-7
# Format: cell-based
# experimental.parameters: Homo sapiens, MCF7, 72 h drug exposure, read-out: MCF-7 median IC50
Structures can show the parent of a compound that is named as a salt.
Catalogue of IC50 values
All answers are understood in nM, so give the number only.

CNC(=O)c1ccnn2c(-c3ccccc3)c(-c3ccc(C4(N)CCC4)cc3)nc12 [Example 63] ... 760
CCNC(=O)c1ccc2nc(-c3ccc(C4(N)CCC4)cc3)c(-c3ccccc3)n2n1 [Example 66] ... 980
NC1(c2ccc(-c3nc4c(C5CC5)cc(Cl)nn4c3-c3ccccc3)cc2)CCC1 [Example 46] ... 1500
NC(=O)c1cc(C(N)=O)c2nc(-c3ccc(C4(N)CCC4)cc3)c(-c3ccccc3)n2n1 [Example 34] ... 330
CSc1nn2c(-c3ccccc3)c(-c3ccc(C4(N)CCC4)cc3)nc2c(C)c1C [Example 54] ... 1800

Exercise: For the molecule NC1(c2ccc(-c3nc4ccc(O)nn4c3-c3ccccc3)cc2)CCC1 [Example 79] , what IC50 is on record?
Key: 10000

Exercise: Item under review: COc1cc(-c2cn[nH]c2)c2nc(-c3ccc(C4(N)CCC4)cc3)c(-c3ccccc3)n2n1 [Example 15, HCl salt] . Reported IC50?
Key: 1800

Exercise: Look up IC50 for this molecule: CCOc1cc(C(N)=O)nn2c(-c3ccccc3)c(-c3ccc(C4(N)CCC4)cc3)nc12 [Example 61]
Key: 56

Exercise: I'd like to know its IC50. The molecule in question is CCCc1ccnn2c(-c3ccccc3)c(-c3ccc(C4(N)CCC4)cc3)nc12 [Example 47]
Key: 1100

Exercise: Quick check: IC50 of C=Cc1cc(-c2cc[nH]n2)c2nc(-c3ccc(C4(N)CCC4)cc3)c(-c3ccccc3)n2n1 [Example 20] ?
Key: 1800

Exercise: // query IC50 value for entry NC1(c2ccc(-c3nc4c(OCc5ccccc5)cc(Cl)nn4c3-c3ccccc3)cc2)CCC1 [Example 29]
Key: 1700

Exercise: Entry CNC(=O)c1ccc2nc(-c3ccc(C4(N)CCC4)cc3)c(-c3ccccc3)n2n1 [Example 68] has what IC50?
Key: 680

Exercise: Given the entry CCc1cc(-c2cc[nH]n2)c2nc(-c3ccc(C4(N)CCC4)cc3)c(-c3ccccc3)n2n1 [Example 21] , report its measured IC50.
Key: 1800

Exercise: Fill in: IC50 of COc1cc(OC)c2nc(-c3ccc(C4(N)CCC4)cc3)c(-c3ccccc3)n2n1 [Example 9] is ___
Key: 340

Exercise: Recorded IC50 of CCOc1nn2c(-c3ccccc3)c(-c3ccc(C4(N)CCC4)cc3)nc2c(C)c1C [Example 55] , please.
Key: 1900

Exercise: // returns reported IC50 for input COc1cc(C(N)=O)nn2c(-c3ccccc3)c(-c3ccc(C4(N)CCC4)cc3)nc12 [Example 10]
Key: 39

Exercise: Endpoint output: IC50 of COc1nn2c(-c3ccccc3)c(-c3ccc(C4(N)CCC4)cc3)nc2c(C)c1C [Example 53] . Value?
Key: 870
